Assay: Pharmacokinetics in SD rats
Type: in vivo, rat
Conditions: male, SD, rat, in vivo, po, 2 mg/kg
test readout: Tmax (h)

>>> reported_value("CN[C@H]1CC[C@]23C[C@]24CC[C@]2(C)C(C(C)=O)=CC[C@@]2(C)[C@@H]4CC[C@H]3C1(C)C")
5

====

Test: Pharmacokinetics in Beagle canines
Format: in vivo
Conditions: male, Beagle, dog, in vivo, po, 2 mg/kg
test readout: Tmax (h)

>>> reported_value("CN[C@H]1CC[C@]23C[C@]24CC[C@]2(C)C(C(C)=O)=CC[C@@]2(C)[C@@H]4CC[C@H]3C1(C)C [Compound 369]")
2.67
